// growth lookup, one value per entry
- Tested on: K-562 leukemia
- experimentSummary: NCI-60 one-dose screen, 48 h (100 = growth as untreated, 0 = no growth, -100 = all killed)
- assayContext: 10 µM unless noted
Compounds without any hit were thinned out: in the full panel of roughly 83,000, 20% have a hit.
recordedEndpoint: growth (%)

molecule: O=c1cc(C2NCCc3c2[nH]c2ccccc32)c2c(ccc3ccccc32)o1 (centres undefined)
recordedEndpoint: growth
unitAnnotation: %
recordedMeasurement: 52.9
//
molecule: CC/C=C\C[C@H]1C/C=C2/C(=O)C(Cl)=C[C@@H]2C/C=C\CCCC(=O)O1
recordedEndpoint: growth
unitAnnotation: %
recordedMeasurement: -11.6
//
molecule: COc1cc(OC)c(C(=O)/C=C/c2cccc(C#N)c2)c(OC)c1
recordedEndpoint: growth
unitAnnotation: %
recordedMeasurement: 13.7
//
molecule: C=C1C(=O)O[C@H]2[C@H]1CC/C(Cn1cc(-c3ccc(N)cc3)nn1)=C\CC[C@@]1(C)O[C@@H]21
recordedEndpoint: growth
unitAnnotation: %
recordedMeasurement: 6.36
//
molecule: CC1=C(C#N)C(C)(C)C(C#N)=C(C)N1
recordedEndpoint: growth
unitAnnotation: %
recordedMeasurement: 99.4
//
molecule: CCN(Cc1ccccc1)c1ccc(SC#N)cc1
recordedEndpoint: growth
unitAnnotation: %
recordedMeasurement: 41
//
molecule: CCN(CC)CCC(=O)c1cccc2ccccc12
recordedEndpoint: growth
unitAnnotation: %
recordedMeasurement: 89.6
//
molecule: CC1(C)OC2COC3(C(=O)O)OC(C)(C)OC3C2O1 (centres undefined)
recordedEndpoint: growth
unitAnnotation: %
recordedMeasurement: 101
//
molecule: CCc1c(C(=O)Nc2ccc3ccccc3c2)[nH]c(C)c1C(C)=O
recordedEndpoint: growth
unitAnnotation: %
recordedMeasurement: 81.2

###

- Test system: NCI-H226 lung
- experimentSummary: NCI-60 one-dose screen, 48 h (100 = growth as untreated, 0 = no growth, -100 = all killed)
- assayContext: 10 µM unless noted
The panel holds about 83,000 compounds, 20% with a hit somewhere; the sample as a whole holds those more often.
// growth lookup, one value per entry
recordedEndpoint: growth (%)

compound: CN(C)C/C=C/C(=O)Nc1cc2c(Nc3ccc(F)c(Cl)c3F)ncnc2cc1OCCOC(F)F
targetEntity: NCI-H226 lung
recordedMeasurement: 25.1
--
compound: Cn1c(-c2nonc2NC(=O)c2ccc(F)cc2)nc2ccccc21
targetEntity: NCI-H226 lung
recordedMeasurement: 96
--
compound: Cc1ccnc2nc(C(=O)OCC(=O)Nc3ccc(-c4ccccc4)cc3)nn12
targetEntity: NCI-H226 lung
recordedMeasurement: 110
--
compound: O=C(CNc1ccc(Cl)cc1)Nc1ccc(-c2nc3ccccc3s2)cc1
targetEntity: NCI-H226 lung
recordedMeasurement: 58.1
--
compound: Nc1nn2cc(-c3ccc(Cl)s3)nc2c2ccccc12
targetEntity: NCI-H226 lung
recordedMeasurement: 94.8
--
compound: CCN(CC)CCCC(C)N=c1cc(Nc2cc(=NC(C)CCCN(CC)CC)c3cc(OC)ccc3o2)oc2ccc(OC)cc12 (stereo not given)
targetEntity: NCI-H226 lung
recordedMeasurement: 2.33
--
compound: COc1cccc(/C=C/c2c(C(=O)O)cccc2[N+](=O)[O-])c1OC
targetEntity: NCI-H226 lung
recordedMeasurement: 99.5
--
compound: COc1cc(NC(=O)c2cc3ccccc3nc2Nc2ccc(F)cc2)cc(OC)c1OC
targetEntity: NCI-H226 lung
recordedMeasurement: 43
--
compound: COc1cc(CNC(=O)CCSc2nc3ccccc3c(=O)n2Cc2cc(OC)c(OC)c(OC)c2)cc(OC)c1OC
targetEntity: NCI-H226 lung
recordedMeasurement: 70
--
compound: O=C1Nc2cc(Cl)ccc2/C1=C/c1ccc(N2CCOCC2)s1
targetEntity: NCI-H226 lung
recordedMeasurement: 92.9
--
compound: CCCCCCc1nc2c(c(C)nn2-c2ccccc2)c2c1CCCCC2
targetEntity: NCI-H226 lung
recordedMeasurement: 89.2
--
compound: COc1cc(OC)cc(-c2n[nH]nc2-c2ccc3c(c2)OCO3)c1
targetEntity: NCI-H226 lung
recordedMeasurement: 92.1
--
compound: C=C1C(=O)O[C@H]2[C@H]1CC/C(Cn1cc(-c3ccccc3C(F)(F)F)nn1)=C\CC[C@@]1(C)O[C@@H]21
targetEntity: NCI-H226 lung
recordedMeasurement: -45.6
--
compound: COc1ccc(C2SCC(=O)N2NC(=O)c2ccc(NC(=O)c3ccccn3)cc2)cc1OC (stereo not given)
targetEntity: NCI-H226 lung
recordedMeasurement: 94.3
--
compound: N#CC1=C(N)OC2=C(C(=O)CCC2)C1c1ccco1 (stereo not given)
targetEntity: NCI-H226 lung
recordedMeasurement: 103
--
compound: Cc1nc2scc(-c3ccccc3)n2c(=O)c1CCO
targetEntity: NCI-H226 lung
recordedMeasurement: 99.9
--
compound: COC(=O)CCCCN=Cc1c(O)c(O)c(C(C)C)c2cc(C)c(-c3c(C)cc4c(C(C)C)c(O)c(O)c(C=NCCCCC(=O)OC)c4c3O)c(O)c12
targetEntity: NCI-H226 lung
recordedMeasurement: 41.4
--
compound: CCc1cccc(C)c1NC(=O)c1sc2nc3c(cc2c1N)C(=O)CCC3
targetEntity: NCI-H226 lung
recordedMeasurement: 62.1
--
compound: Nc1nc(N)c2nc(CNc3ccc(C(=O)CC(CCC(=O)O)C(=O)O)cc3)cnc2n1 (stereo not given)
targetEntity: NCI-H226 lung
recordedMeasurement: 38.2
--
compound: Cc1cc(C(=O)O)c(N)c(C)n1
targetEntity: NCI-H226 lung
recordedMeasurement: 118

###

- System: KM12 colon
- experimentSummary: NCI-60 one-dose screen, 48 h (100 = growth as untreated, 0 = no growth, -100 = all killed)
- assayContext: 10 µM unless noted
The panel holds about 83,000 compounds, 20% with a hit somewhere; the sample as a whole holds those more often.
Threshold rule: growth greater than or equal to 80% is rule met; below that, rule not met.

compound: CC(C)(C)c1cn2cccc(C(=O)N3CCN(CC(=O)Nc4ccc(Cl)cc4C(=O)c4ccccc4Cl)CC3)c2n1
assignedCategory: rule not met
//
compound: CCCCCCCCCCCCCCCCC(Br)C(=O)O (stereo not given)
assignedCategory: rule met
//
compound: COc1cc(/C=C2\CCCC3=C2NC(C)=NC3c2cc(OC)c(OC)c(OC)c2)cc(OC)c1OC (stereo not given)
assignedCategory: rule not met
//
compound: COC1=CC(c2ccc[nH]2)=N/C1=C\c1[nH]c(C)c(C(=O)CCCCC(=O)NCc2ccccc2)c1C
assignedCategory: rule not met
//
compound: N#Cc1ncc(-c2ccc(F)c(F)c2F)c(NC2CCCCCC2)n1
assignedCategory: rule not met
//
compound: CCN(CC)CCC(=O)c1cccc2ccccc12
assignedCategory: rule met
//
compound: C=C1C(=O)O[C@H]2[C@H]1CC/C(COC(=O)NCCc1ccc(Br)cc1)=C\CC[C@@]1(C)O[C@@H]21
assignedCategory: rule not met
//
compound: CCCCCC/C=C\CCCCCCCCOc1ccc(CCOP(=O)(O)OCC[N+](C)(C)C)cc1
assignedCategory: rule not met
//
compound: Cc1cc(C)c2c(=O)[nH]c(SCC(=O)Nc3cccc(S(=O)(=O)N(C)C)c3)nc2n1
assignedCategory: rule met
//
compound: CCCCCCc1nc2c(c(C)nn2-c2ccccc2)c2c1CCCCC2
assignedCategory: rule met
//
compound: O=C(c1ccncc1)N1N=C(c2ccc(Cl)cc2)CC1c1c[nH]c2ccccc12 (stereo not given)
assignedCategory: rule met
//
compound: O=C1NC(Cc2c[nH]c3ccccc23)C(=O)N1Cc1ccc(Cl)cc1 (stereo not given)
assignedCategory: rule met
//
compound: CCN(C(=O)c1cc2ccccc2[nH]1)[C@H]1CCC[C@@H](NCc2ccc(OC)cc2)C1
assignedCategory: rule met
//
compound: CCOc1ccc(/C=C/C=N/NC(N)=S)cc1
assignedCategory: rule met
//
compound: CCCOC(=O)C1(O)CCCC1
assignedCategory: rule met
//
compound: CCN1C(=O)N(CC)C2Nn3c(s/c(=C4\C(=O)N(C5CCCC5)c5ccccc54)c3=O)=NC21 (stereo not given)
assignedCategory: rule not met
//
compound: CC(C)(C)c1cc(-c2nc3ccc(N4CCN(CCO)CC4)cc3[nH]2)cc(C(C)(C)C)c1O
assignedCategory: rule not met
//
compound: Nc1c(C(=O)Nc2cccc(C(F)(F)F)c2)sc2nc3c(cc12)C(O)CCC3 (stereo not given)
assignedCategory: rule not met
//
compound: COc1cc(NCCCN=C(N)NC(N)=NC(C)C)c2ncccc2c1
assignedCategory: rule not met
//
compound: CCCS(=O)(=O)c1nc(NC2CC2)cc(-c2ccc3c(ccn3C3CC(C)(C)NC(C)(C)C3)c2)n1
assignedCategory: rule not met

###

- Test system: A549/ATCC NSCLC
- experimentSummary: NCI-60 one-dose screen, 48 h
- assayContext: 10 µM unless noted
Compounds without any hit were thinned out: in the full panel of roughly 83,000, 20% have a hit. Calls of active or inactive are those of the source. Rule for the calls: active = growth percent below 10; inactive = the rest.
Outcome codes: class 1 = active, class 0 = inactive

compound: CCCn1c(=S)sc2c(Cl)nc(C)nc21
targetEntity: A549/ATCC NSCLC
assignedCategory: class 0
//
compound: Cn1c(=O)c2c(nc3n2CCN(CCc2ccc(OCCN4CCOCC4)cc2)C3)n(C)c1=O
targetEntity: A549/ATCC NSCLC
assignedCategory: class 0
//
compound: CCNCc1ccncc1
targetEntity: A549/ATCC NSCLC
assignedCategory: class 0
//
compound: CC(=O)C1CCC(C)=CC1=O (stereo unspecified)
targetEntity: A549/ATCC NSCLC
assignedCategory: class 0
//
compound: COc1ccc(C(=O)c2cc(OC)c(OC)c(OC)c2)cc1/C=C/C(=O)c1ccc2c(c1)OCO2
targetEntity: A549/ATCC NSCLC
assignedCategory: class 0
//
compound: C/C(=N\NC(=O)CC#N)c1cc2cc(Cl)ccc2o1
targetEntity: A549/ATCC NSCLC
assignedCategory: class 0
//
compound: ClC1=C(Cl)C(Cl)=C(Cl)C1=Cc1ccc(Cl)cc1Cl
targetEntity: A549/ATCC NSCLC
assignedCategory: class 1
//
compound: COc1ccc(C(=O)c2cc(OC)c(OC)c(OC)c2)cc1/C=C/C(=O)c1ccc(O)cc1
targetEntity: A549/ATCC NSCLC
assignedCategory: class 0
//
compound: COc1ccc(/C=N/NC(=O)Cn2c(Cc3cccc4ccccc34)nc3ccccc32)cc1
targetEntity: A549/ATCC NSCLC
assignedCategory: class 0
//
compound: CCN1C(=O)N(CC)C2C1NN=c1s/c(=C\c3ccccn3)c(=O)n12 (stereo unspecified)
targetEntity: A549/ATCC NSCLC
assignedCategory: class 0
//
compound: COc1ccc(C2CC(=O)Nc3c2c(C)nn3-c2nc3ccccc3[nH]2)cc1OC (stereo unspecified)
targetEntity: A549/ATCC NSCLC
assignedCategory: class 0
